Experiment Description: Chemical hydrolysis stability at pH 1 and pH 7.4 (HPLC)
Type: physicochemical
Measurement Parameters: pH 1; 0.1 N HCl, 37° C., over 12 h; read-out: t1/2 at pH 1 (converted)
Assay Readout: half-life (h)
Numbers only, in h.

The cases that follow already have their half-life on record.
                                   compound  quantity_unit   val
0  CCN(CC)C(=O)/C(C#N)=C/c1cc(OC(=O)OCCc2cccs2)c(O)c([N+](=O)[O-])c1 [Compound 61]              h  12.8
1  CCN(CC)C(=O)/C(C#N)=C/c1cc(OC(=O)OC(C)c2ccccc2)c(O)c([N+](=O)[O-])c1 (stereo not shown) [Compound 137]              h   7.8

--- query ---
Ask | Please supply the value of reported half-life for the item CCN(CC)C(=O)/C(C#N)=C/c1cc(OC(=O)OC(C)C)c(O)c([N+](=O)[O-])c1 [Compound 7]
Reply | 2.7
